- Assayed System: PIK3C2B (Homo sapiens, UniProt O00750)
- Construct: purchased Ambit Biosciences (scanMAXX KINOMEscan)
- Sequence (O00750 whole entry): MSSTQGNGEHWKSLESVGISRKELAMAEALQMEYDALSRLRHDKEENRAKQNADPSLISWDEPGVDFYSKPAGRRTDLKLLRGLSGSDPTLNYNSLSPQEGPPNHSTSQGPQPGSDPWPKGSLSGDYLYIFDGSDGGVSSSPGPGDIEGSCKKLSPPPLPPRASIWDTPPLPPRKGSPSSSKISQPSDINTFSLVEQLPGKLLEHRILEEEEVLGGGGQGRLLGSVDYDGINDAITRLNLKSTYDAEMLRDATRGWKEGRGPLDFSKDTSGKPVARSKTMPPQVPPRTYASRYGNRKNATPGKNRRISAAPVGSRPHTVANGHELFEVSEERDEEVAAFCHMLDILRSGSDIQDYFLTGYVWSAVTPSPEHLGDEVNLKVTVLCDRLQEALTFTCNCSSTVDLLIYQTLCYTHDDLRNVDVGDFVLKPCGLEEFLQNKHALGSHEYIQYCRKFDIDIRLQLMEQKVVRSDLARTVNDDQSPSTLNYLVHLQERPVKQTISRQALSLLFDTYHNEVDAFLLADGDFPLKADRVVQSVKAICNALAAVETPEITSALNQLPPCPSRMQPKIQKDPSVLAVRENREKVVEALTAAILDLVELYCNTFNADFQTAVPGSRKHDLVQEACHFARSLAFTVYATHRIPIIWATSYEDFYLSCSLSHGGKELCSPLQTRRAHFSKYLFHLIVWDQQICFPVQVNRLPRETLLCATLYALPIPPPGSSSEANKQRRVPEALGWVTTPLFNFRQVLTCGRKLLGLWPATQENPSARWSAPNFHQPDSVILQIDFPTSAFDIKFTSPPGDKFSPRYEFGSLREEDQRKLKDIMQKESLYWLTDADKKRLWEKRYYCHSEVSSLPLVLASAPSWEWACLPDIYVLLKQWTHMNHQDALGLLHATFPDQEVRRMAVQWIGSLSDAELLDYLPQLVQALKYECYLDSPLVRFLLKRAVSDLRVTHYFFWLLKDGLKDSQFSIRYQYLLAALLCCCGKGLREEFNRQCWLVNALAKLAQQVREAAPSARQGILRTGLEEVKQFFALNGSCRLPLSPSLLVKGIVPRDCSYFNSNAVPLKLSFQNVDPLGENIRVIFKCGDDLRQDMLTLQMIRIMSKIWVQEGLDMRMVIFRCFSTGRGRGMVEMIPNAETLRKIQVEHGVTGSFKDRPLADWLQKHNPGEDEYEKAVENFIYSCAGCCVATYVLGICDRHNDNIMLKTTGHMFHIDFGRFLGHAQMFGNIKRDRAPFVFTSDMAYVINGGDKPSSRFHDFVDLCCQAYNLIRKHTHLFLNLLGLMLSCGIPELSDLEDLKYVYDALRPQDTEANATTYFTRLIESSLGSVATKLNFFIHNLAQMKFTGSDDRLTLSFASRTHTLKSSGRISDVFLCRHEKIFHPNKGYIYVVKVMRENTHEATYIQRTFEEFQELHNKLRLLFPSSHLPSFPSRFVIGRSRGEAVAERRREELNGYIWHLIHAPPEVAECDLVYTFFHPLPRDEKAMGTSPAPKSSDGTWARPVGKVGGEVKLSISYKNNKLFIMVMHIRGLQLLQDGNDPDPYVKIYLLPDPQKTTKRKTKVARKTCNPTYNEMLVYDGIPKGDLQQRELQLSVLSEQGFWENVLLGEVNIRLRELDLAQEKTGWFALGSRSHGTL
- Assay Method Text: KINOMEscan, PIK3C2B
- Format: binding
- Condition Set: kinase PIK3C2B; 1 µM; read-out: % of control at 1 µM
This listing pairs compounds with measured remaining binding at 1 µM.
Expressed in %, but write only the number.

Looking up Nc1cc(C(F)(F)F)c(-c2cc(N3CCOCC3)nc(N3CCOCC3)n2)cn1 , I found its remaining binding at 1 µM recorded as 97

Looking up COc1ncc(-c2ccc3nccc(-c4ccnnc4)c3c2)cc1NS(=O)(=O)c1ccc(F)cc1F , I found its remaining binding at 1 µM recorded as 0

Looking up Cn1c(=O)n(-c2ccc(C(C)(C)C#N)cc2)c2c3cc(-c4cnc5ccccc5c4)ccc3ncc21 , I found its remaining binding at 1 µM recorded as 9.9

Looking up CS(=O)(=O)N1CCN(Cc2cc3nc(-c4cccc5[nH]ncc45)nc(N4CCOCC4)c3s2)CC1 , I found its remaining binding at 1 µM recorded as 54

Looking up FC(F)c1nc2ccccc2n1-c1nc(N2CCOCC2)nc(N2CCOCC2)n1 , I found its remaining binding at 1 µM recorded as 0.85
